Source of measurements: paper PMC3914206

experimentalSystem: panel of 442 kinases (Homo sapiens, UniProt Q86Y07)
Construct: purchased KINOMEscan
Sequence (Q86Y07 whole entry): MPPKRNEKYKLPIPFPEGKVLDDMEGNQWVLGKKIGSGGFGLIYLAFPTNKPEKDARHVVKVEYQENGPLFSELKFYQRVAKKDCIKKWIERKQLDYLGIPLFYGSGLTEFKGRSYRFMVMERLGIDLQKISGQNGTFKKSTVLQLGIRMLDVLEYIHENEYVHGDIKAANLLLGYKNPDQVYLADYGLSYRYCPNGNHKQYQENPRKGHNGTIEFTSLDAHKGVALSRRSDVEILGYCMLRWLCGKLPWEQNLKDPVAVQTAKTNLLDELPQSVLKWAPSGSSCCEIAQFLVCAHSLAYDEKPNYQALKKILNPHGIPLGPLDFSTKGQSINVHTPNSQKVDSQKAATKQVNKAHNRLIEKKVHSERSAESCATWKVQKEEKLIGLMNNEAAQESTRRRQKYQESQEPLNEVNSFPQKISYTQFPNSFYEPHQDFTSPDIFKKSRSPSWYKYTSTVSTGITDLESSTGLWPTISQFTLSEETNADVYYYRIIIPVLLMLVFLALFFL
Assay type: binding
appliedConditions: kinase VRK2; compound concentration 10 µM
% Ctrl, VRK2 for assorted compounds
The answer is to be given in % Ctrl; state only the numeric part.

Examples with answers:
compound="COc1cc(C(=O)N2CCC(N3CCN(C)CC3)CC2)ccc1Nc1ncc2c(n1)N1CCc3cccc(c31)C(=O)N2C [Compound 24]" numericvalue=100
compound="COc1cc(C(=O)N2CCC(N3CCN(C)CC3)CC2)ccc1Nc1ncc2c(n1)N(C1CCCC1)c1ccccc1C(=O)N2C [Compound 25]" numericvalue=100

Entry under test: COc1cc(C(=O)N2CCC(N3CCN(C)CC3)CC2)ccc1Nc1ncc2c(n1)N(C)c1ccccc1C(=O)N2C [15 (LRRK2-IN-1)] . Its % Ctrl, VRK2 was 99

Entry under test: CCOc1cc(C(=O)N2CCC(N3CCN(C)CC3)CC2)ccc1Nc1ncc2c(n1)N(C1CCCC1)c1ccccc1C(=O)N2C [Compound 26] . Its % Ctrl, VRK2 was 82
